Observed IC50 for UniProt P14416, reported per entry below.
Sequence (P14416 1-414 isoform P14416-2): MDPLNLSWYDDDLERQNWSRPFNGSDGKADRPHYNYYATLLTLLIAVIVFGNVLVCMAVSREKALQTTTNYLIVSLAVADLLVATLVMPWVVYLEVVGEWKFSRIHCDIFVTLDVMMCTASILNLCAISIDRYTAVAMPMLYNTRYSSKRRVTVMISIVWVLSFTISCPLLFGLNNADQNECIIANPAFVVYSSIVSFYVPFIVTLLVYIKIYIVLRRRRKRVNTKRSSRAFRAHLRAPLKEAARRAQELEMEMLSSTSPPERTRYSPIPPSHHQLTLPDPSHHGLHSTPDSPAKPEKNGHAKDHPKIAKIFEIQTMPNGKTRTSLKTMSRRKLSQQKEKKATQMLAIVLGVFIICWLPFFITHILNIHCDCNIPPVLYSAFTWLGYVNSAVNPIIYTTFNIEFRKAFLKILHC
Numbers only, in nM.

CN1CCc2c(c3ccccc3n2Cc2ccccc2)C1 [1.9(1)•½NDSA] ... 3000

Next:
## Input What measured IC50 goes with Cc1ccc2c(c1)c1c(n2CCc2ccc(C)nc2)CCN(C)C1.Cl.Cl [1.1.2(4-2)•2HCl] ?
## Output 1750

###

target_or_system: recombinant human 5-HT6 receptor (Homo sapiens, UniProt P50406)
Construct: expressed in transfected cells; host or cells: HeLa
Sequence (P50406 whole entry): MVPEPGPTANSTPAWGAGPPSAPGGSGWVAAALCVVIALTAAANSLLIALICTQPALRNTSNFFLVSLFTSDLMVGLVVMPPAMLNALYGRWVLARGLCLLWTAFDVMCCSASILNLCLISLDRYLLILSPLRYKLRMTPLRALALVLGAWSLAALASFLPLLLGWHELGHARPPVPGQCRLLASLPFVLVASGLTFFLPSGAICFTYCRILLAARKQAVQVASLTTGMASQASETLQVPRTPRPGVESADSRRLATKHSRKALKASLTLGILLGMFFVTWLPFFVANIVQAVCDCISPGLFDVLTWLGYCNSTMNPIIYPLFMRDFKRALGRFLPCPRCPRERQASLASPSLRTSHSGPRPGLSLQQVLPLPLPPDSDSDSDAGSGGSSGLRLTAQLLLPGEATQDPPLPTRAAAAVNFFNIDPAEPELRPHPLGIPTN
experiment: radioligand binding to serotonin receptor 5-HT6 ([3H] Lysergic acid diethylamide)
condition_info: ligand concentration 1 μM; read-out: 5-HT6 % inhibition
Exercise: for every item that follows, state its recorded inhibition at 1 µM.
Give bare numbers, in %.

Solved entries:
Cc1ccc2c(c1)c1c(n2CCc2ccncc2)CCCN(C)C1 ... 84
CN1CCc2c(c3ccccc3n2Cc2ccccc2)C1.Cl [1.9(1)•HCl] ... 79
Cc1ccc2c(c1)c1c(n2CCc2ccccn2)CCCN(C)C1 ... 88
Cc1ccc2c(c1)c1c(n2CCc2ccccn2)CCN(C)C1.Cl.Cl [1.1.2(2-3)•2HCl] ... 97

## Input What measured inhibition at 1 µM goes with Cc1ccc2c(c1)[C@H]1CN(C)CCC[C@@H]1N2CCc1ccc(C)nc1 (relative stereo) ?
## Output 93
